System: Friedreich ataxia patient-derived human dermal fibroblasts
Assay: Cell viability evaluation test using human dermal fibroblasts derived from a Friedreich ataxia patient (BSO stress)
Assay type: cell-based
Details: Fibroblast, rescue of cell viability, 30 μM BSO, 48 hours, Calcein-AM fluorescence, no BSO = 100%, BSO only = 0%
Measure name: pEC50
The meaning of pEC50 here: minus log10 of the concentration in molar units.

Any idea what pEC50 was measured for "COc1ccc(C)c(C2=C3N=C(N(C)C)N=C3c3ccccc3C2=O)c1" ?
7.74

Follow-up entry: "Cc1ncccc1C1=C2N=C(N(C)C)N=C2c2ccccc2C1=O"
8.15

Follow-up entry: "CN(C)C1=NC2=C(c3ccc4c(c3)OCCN4C)C(=O)c3ccccc3C2=N1"
7.77

Follow-up entry: "CN(C)C1=NC2=C(c3nn(C)c4ccccc34)C(=O)c3ccccc3C2=N1"
8.29

====

Test system: Friedreich ataxia patient-derived human dermal fibroblasts
Test: Cell viability evaluation test using human dermal fibroblasts derived from a Friedreich ataxia patient (BSO stress)
Type: cell-based
Conditions: Fibroblast, rescue of cell viability, 30 μM BSO, 48 hours, Calcein-AM fluorescence, no BSO = 100%, BSO only = 0%
Measure name: EC50

# example entries with known answers
{"columns": ["Compound", "EC50"],
 "data": [
  ["CN(C)C1=NC2=C(c3ccccc3N3CCOCC3)C(=O)c3ccccc3C2=N1 [Example 11]", "6.4 nM"],
  ["CN(C)C1=NC2=C(c3ccc(N(C)C)cc3)C(=O)c3ccccc3C2=N1 [Example 72]", "20 to 100 nM"],
  ["Cc1ccc(C2=C3N=C(N(C)C)N=C3c3ccccc3C2=O)c(C)c1 [Example 44]", "17 nM"],
  ["CN(C)C1=NC2=C(c3ccccc3Cl)C(=O)c3ccccc3C2=N1 [Example 33]", "16 nM"],
  ["COc1ccc(C2=C3N=C(N(C)C)N=C3c3ccccc3C2=O)c(F)c1 [Example 8]", "10 nM"],
  ["CN(C)C1=NC2=C(c3ccc4c(c3)OCCCO4)C(=O)c3ccccc3C2=N1 [Example 79]", "39.1 nM"],
  ["COc1ccc(Cl)c(C2=C3N=C(N(C)C)N=C3c3ccccc3C2=O)c1 [Example 86]", "14.9 nM"],
  ["CN(C)C1=NC2=C(c3ccccc3C(F)(F)F)C(=O)c3ccccc3C2=N1 [Example 20]", "< 3 nM"]
]}

Form field - read-out: EC50; system: Friedreich ataxia patient-derived human dermal fibroblasts; submitted item: Cc1noc(C)c1C1=C2N=C(N3CCOCC3)N=C2c2ccccc2C1=O [Example 47]
4.9 nM

====

Test system: Friedreich ataxia patient-derived human dermal fibroblasts
Assay: Cell viability evaluation test using human dermal fibroblasts derived from a Friedreich ataxia patient (BSO stress)
Assay type: cell-based
Conditions: Fibroblast, rescue of cell viability, 30 μM BSO, 48 hours, Calcein-AM fluorescence, no BSO = 100%, BSO only = 0%
pEC50 values by entry
The meaning of pEC50 here: minus log10 of the concentration in molar units.

# example entries with known answers
{"columns": ["Item smiles", "Assay value"],
 "data": [
  ["Cc1ccncc1C1=C2N=C(N(C)C)N=C2c2ccccc2C1=O", 8.22],
  ["CCN(CC)C(=O)c1ccccc1C1=C2N=C(N(CC)CC)N=C2c2ccccc2C1=O", 7.39],
  ["COc1cccc(F)c1C1=C2N=C(N(C)C)N=C2c2ccccc2C1=O", 8.19]
]}

Next item in the queue.
Form field - read-out: pEC50; system: Friedreich ataxia patient-derived human dermal fibroblasts; submitted item: "COc1cccc(C2=C3N=C(N(C)C)N=C3c3ccccc3C2=O)c1F"
7.52
